Target: Ca^2+ channel (rat cardiac microsomes) (Rattus norvegicus, UniProt P22002)
Construct: The reaction mixture contained rat cardiac microsomes
Sequence (P22002 whole entry, other chains not shown): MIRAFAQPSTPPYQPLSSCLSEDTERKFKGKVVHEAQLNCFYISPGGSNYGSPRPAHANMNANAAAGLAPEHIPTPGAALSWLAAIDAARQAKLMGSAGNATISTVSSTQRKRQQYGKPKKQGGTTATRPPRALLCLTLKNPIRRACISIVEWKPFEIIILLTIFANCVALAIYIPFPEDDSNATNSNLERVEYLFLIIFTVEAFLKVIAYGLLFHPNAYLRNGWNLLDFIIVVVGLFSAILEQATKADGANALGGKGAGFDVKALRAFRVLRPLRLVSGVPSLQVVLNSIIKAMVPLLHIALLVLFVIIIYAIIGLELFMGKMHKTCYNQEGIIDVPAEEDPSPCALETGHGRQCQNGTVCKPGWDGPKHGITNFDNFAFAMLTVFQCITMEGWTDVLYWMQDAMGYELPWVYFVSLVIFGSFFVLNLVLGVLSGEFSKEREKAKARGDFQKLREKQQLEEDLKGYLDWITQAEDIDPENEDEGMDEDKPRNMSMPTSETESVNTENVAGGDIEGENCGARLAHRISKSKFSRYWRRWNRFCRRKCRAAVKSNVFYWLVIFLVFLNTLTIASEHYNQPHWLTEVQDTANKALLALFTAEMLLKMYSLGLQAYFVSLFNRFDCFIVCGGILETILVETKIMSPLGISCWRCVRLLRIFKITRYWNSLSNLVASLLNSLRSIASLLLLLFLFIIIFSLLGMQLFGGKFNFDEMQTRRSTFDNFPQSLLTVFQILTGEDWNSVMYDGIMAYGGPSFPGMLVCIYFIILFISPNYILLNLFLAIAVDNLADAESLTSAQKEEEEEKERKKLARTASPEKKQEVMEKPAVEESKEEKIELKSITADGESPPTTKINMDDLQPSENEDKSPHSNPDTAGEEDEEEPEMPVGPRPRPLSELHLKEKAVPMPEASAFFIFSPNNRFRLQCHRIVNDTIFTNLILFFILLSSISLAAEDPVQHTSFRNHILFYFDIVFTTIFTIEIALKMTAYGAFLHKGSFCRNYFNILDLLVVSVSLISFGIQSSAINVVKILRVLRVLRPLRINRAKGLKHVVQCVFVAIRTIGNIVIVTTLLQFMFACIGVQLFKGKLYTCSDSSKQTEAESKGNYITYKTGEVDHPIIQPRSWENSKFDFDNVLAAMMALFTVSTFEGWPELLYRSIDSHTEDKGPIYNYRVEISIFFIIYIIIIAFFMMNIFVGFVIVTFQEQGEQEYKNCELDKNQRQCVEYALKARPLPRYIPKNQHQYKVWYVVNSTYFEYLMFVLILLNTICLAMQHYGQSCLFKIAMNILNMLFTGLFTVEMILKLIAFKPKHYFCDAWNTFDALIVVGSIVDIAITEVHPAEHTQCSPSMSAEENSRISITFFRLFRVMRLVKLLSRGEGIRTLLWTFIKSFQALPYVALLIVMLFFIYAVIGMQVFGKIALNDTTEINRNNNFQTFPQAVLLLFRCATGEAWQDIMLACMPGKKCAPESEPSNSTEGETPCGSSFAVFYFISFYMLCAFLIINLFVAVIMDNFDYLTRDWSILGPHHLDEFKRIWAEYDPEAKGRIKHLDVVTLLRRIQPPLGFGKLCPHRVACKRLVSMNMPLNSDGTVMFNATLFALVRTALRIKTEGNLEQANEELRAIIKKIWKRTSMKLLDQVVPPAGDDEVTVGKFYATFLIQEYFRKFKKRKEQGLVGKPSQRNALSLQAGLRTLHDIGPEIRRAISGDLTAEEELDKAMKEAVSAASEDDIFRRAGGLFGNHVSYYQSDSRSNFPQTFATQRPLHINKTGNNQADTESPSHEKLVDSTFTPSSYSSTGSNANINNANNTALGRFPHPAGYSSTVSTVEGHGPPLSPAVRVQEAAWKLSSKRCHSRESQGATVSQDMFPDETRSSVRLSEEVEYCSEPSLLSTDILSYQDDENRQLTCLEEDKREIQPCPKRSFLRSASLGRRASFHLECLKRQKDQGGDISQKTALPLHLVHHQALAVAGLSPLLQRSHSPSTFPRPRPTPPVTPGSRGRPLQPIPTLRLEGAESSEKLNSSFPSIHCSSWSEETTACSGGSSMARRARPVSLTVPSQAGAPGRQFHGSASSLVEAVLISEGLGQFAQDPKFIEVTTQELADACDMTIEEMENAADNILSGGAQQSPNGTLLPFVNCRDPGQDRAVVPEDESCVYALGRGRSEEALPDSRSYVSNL
Sequence (P54290 25-944 partner limits assumed, other chains not shown): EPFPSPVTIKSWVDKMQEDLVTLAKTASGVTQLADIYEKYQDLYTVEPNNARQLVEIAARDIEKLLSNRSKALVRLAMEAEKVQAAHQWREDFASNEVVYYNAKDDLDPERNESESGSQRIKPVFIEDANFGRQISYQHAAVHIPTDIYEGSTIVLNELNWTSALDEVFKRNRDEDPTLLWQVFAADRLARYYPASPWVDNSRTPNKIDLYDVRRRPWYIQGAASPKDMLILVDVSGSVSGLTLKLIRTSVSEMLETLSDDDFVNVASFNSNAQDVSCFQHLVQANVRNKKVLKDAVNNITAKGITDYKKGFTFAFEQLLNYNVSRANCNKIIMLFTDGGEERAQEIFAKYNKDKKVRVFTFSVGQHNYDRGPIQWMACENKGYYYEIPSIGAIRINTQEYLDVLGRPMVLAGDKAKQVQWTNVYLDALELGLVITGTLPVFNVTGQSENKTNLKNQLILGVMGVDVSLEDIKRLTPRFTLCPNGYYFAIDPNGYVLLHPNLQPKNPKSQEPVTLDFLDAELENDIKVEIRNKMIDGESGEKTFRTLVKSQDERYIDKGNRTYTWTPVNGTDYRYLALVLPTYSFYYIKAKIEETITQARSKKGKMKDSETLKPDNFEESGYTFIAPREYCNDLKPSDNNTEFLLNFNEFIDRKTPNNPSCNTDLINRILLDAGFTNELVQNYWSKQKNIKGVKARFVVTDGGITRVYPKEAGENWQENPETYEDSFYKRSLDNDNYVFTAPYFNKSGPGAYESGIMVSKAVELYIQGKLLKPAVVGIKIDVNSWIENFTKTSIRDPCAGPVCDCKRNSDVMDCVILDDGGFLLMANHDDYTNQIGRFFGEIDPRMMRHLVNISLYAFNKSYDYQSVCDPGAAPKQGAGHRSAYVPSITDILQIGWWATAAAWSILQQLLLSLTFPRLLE
Sequence (P54290 945-1091 partner limits assumed, other chains not shown): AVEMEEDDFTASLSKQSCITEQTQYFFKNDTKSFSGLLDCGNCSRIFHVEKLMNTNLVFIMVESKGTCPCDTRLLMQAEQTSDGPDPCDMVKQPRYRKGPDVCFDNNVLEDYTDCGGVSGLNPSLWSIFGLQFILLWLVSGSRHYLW
Test: [3H]-Nitrendipine binding assay (affinity for calcium channels)
Details: 0.5 nM [3H]-nitrendipine, Tris buffer, 60 minutes at 25°
pIC50: −log10 of the molar value.
# binarize pIC50: threshold 6 inclusive, high side Met, low side Not met

1. COC(=O)C1=C(N)NC(C)=C([N+](=O)[O-])C1c1ccccc1[S+]([O-])CCCCN1CCN(c2ncccn2)CC1 (stereo not shown) ... Not met
2. COC(=O)C1=C(N)NC(C)=C([N+](=O)[O-])C1c1ccccc1SCCCCCN1CCN(c2ccccc2OC)CC1 (stereo not shown) ... Met
3. COC(=O)C1=C(N)NC(C)=C([N+](=O)[O-])C1c1ccccc1SCCCCN1CCN(c2ncccn2)CC1 (stereo not shown) ... Met
4. COC(=O)C1=C(N)NC(C)=C([N+](=O)[O-])C1c1ccccc1[S+]([O-])CCCCN1CCC(C(=O)c2ccc(F)cc2)CC1 (stereo not shown) ... Not met
5. COC(=O)C1=C(N)NC(C)=C([N+](=O)[O-])C1c1ccccc1OCCCCCN1CCN(c2ccccc2OC)CC1 (stereo not shown) ... Not met
6. COC(=O)C1=C(N)NC(C)=C([N+](=O)[O-])C1c1ccccc1[S+]([O-])CCCN1CCN(c2ccccc2OC)CC1 (stereo not shown) ... Met
7. COC(=O)C1=C(N)NC(C)=C([N+](=O)[O-])C1c1ccccc1SCCCN1CCN(c2ccccc2OC)CC1 (stereo not shown) ... Met
8. COC(=O)C1=C(N)NC(C)=C([N+](=O)[O-])C1c1ccccc1[S+]([O-])CCCCN1CCN(c2ccccc2OC)CC1 (stereo not shown) ... Not met
9. COC(=O)C1=C(N)NC(C)=C([N+](=O)[O-])C1c1ccccc1SCCCCN1CCC(C(=O)c2ccc(F)cc2)CC1 (stereo not shown) ... Met
10. COC(=O)C1=C(N)NC(C)=C([N+](=O)[O-])C1c1ccccc1SCCCCN1CCN(c2ccccc2OC)CC1 (stereo not shown) ... Met
11. COC(=O)C1=C(N)NC(C)=C([N+](=O)[O-])C1c1ccccc1S(=O)(=O)CCCCN1CCN(c2ccccc2OC)CC1 (stereo not shown) ... Met

----------
Biological target: alpha1-adrenoceptor (rat brain membranes)
Assay: [3H]-Prazosin binding assay (affinity for alpha1-adrenoceptors)
Conditions: 0.2 nM [3H]-prazosin, partially purified rat brain membranes, Tris buffer, 60 minutes at 25°
pIC50: −log10 of the molar value.
Use satisfied when the recorded pIC50 is no lower than 7; use not satisfied when it is lower.

1. COC(=O)C1=C(N)NC(C)=C([N+](=O)[O-])C1c1ccccc1[S+]([O-])CCCN1CCN(c2ccccc2OC)CC1 (stereo not shown) ... satisfied
2. COC(=O)C1=C(N)NC(C)=C([N+](=O)[O-])C1c1ccccc1[S+]([O-])CCCCN1CCN(c2ncccn2)CC1 (stereo not shown) ... not satisfied
3. COC(=O)C1=C(N)NC(C)=C([N+](=O)[O-])C1c1ccccc1OCCCCCN1CCN(c2ccccc2OC)CC1 (stereo not shown) ... not satisfied
4. COC(=O)C1=C(N)NC(C)=C([N+](=O)[O-])C1c1ccccc1SCCCCN1CCN(c2ncccn2)CC1 (stereo not shown) ... not satisfied
5. COC(=O)C1=C(N)NC(C)=C([N+](=O)[O-])C1c1ccccc1[S+]([O-])CCCCN1CCN(c2ccccc2OC)CC1 (stereo not shown) ... satisfied
6. COC(=O)C1=C(N)NC(C)=C([N+](=O)[O-])C1c1ccccc1[S+]([O-])CCCCCN1CCN(c2ccccc2OC)CC1 (stereo not shown) ... satisfied
7. COC(=O)C1=C(N)NC(C)=C([N+](=O)[O-])C1c1ccccc1S(=O)(=O)CCCCN1CCN(c2ccccc2OC)CC1 (stereo not shown) ... satisfied
8. COC(=O)C1=C(N)NC(C)=C([N+](=O)[O-])C1c1ccccc1SCCCCN1CCN(c2ccccc2OC)CC1 (stereo not shown) ... satisfied
9. COC(=O)C1=C(N)NC(C)=C([N+](=O)[O-])C1c1ccccc1SCCCCCN1CCN(c2ccccc2OC)CC1 (stereo not shown) ... satisfied
